- Test system: SF-268
- Experimental Protocol: NCI-60 screening, one-dose (10 µM) and five-dose, SRB
- Type: cell-based, human
- Condition Notes: Homo sapiens; 10 μM; SF-268, CNS Cancer; read-out: Growth percentage
Field: activity at 10 µM. Provide a value for each of the compounds that follow.
Give the quantity in %, number only.

The recorded activity at 10 µM for entry `COc1cccc(/C=C/C(=O)c2sc(SCC(=O)N3CCN(c4cc5c(cc4F)c(=O)c(C(=O)O)cn5C4CC4)CC3)nc2C)c1OC` equals 109

Query `Cc1nc(SCC(=O)N2CCN(c3cc4c(cc3F)c(=O)c(C(=O)O)cn4C3CC3)CC2)sc1C(=O)/C=C/c1ccc(F)cc1` yields activity at 10 µM of 111

Kindly note the recorded activity at 10 µM for `Cc1nc(SCC(=O)N2CCN(c3cc4c(cc3F)c(=O)c(C(=O)O)cn4C3CC3)CC2)sc1C(=O)/C=C/c1cccc(F)c1` , which is 25.7

Kindly note the recorded activity at 10 µM for `Cc1nc(SCC(=O)N2CCN(c3cc4c(cc3F)c(=O)c(C(=O)O)cn4C3CC3)CC2)sc1C(=O)/C=C/c1cccc(Cl)c1` , which is 76.1

Briefly, activity at 10 µM measured for `COc1ccc(/C=C/C(=O)c2sc(SCC(=O)N3CCN(c4cc5c(cc4F)c(=O)c(C(=O)O)cn5C4CC4)CC3)nc2C)cc1` : 148

GET /value?item= `Cc1nc(SCC(=O)N2CCN(c3cc4c(cc3F)c(=O)c(C(=O)O)cn4C3CC3)CC2)sc1C(=O)/C=C/c1cccc([N+](=O)[O-])c1` &field=activity at 10 µM returns 172

Consider `CC(=O)c1sc(SCC(=O)N2CCN(c3cc4c(cc3F)c(=O)c(C(=O)O)cn4C3CC3)CC2)nc1C` . Its measured activity at 10 µM is 103

activity at 10 µM measured on `Cc1nc(SCC(=O)N2CCN(c3cc4c(cc3F)c(=O)c(C(=O)O)cn4C3CC3)CC2)sc1C(=O)/C=C/c1ccc(Cl)cc1` = 180

Record `Cc1nc(SCC(=O)N2CCN(c3cc4c(cc3F)c(=O)c(C(=O)O)cn4C3CC3)CC2)sc1C(=O)/C=C/c1ccc(Br)cc1` , field activity at 10 µM: 116

Notebook: `Cc1nc(SCC(=O)N2CCN(c3cc4c(cc3F)c(=O)c(C(=O)O)cn4C3CC3)CC2)sc1C(=O)/C=C/c1ccc(N(C)C)cc1` , activity at 10 µM read as 140

Notebook: `Cc1nc(SCC(=O)N2CCN(c3cc4c(cc3F)c(=O)c(C(=O)O)cn4C3CC3)CC2)sc1C(=O)/C=C/c1ccc([N+](=O)[O-])cc1` , activity at 10 µM read as 81.1

----------
- Tested on: UACC-257
- Experimental Protocol: NCI-60 screening, one-dose (10 µM) and five-dose, SRB
- Type: cell-based, human
- Condition Notes: Homo sapiens; 10 μM; UACC-257, Melanoma; read-out: Growth percentage
Hi there, I'd appreciate the recorded activity at 10 µM for every entry that follows.
Write the answer as a number in %, unit excluded.

For Cc1nc(SCC(=O)N2CCN(c3cc4c(cc3F)c(=O)c(C(=O)O)cn4C3CC3)CC2)sc1C(=O)/C=C/c1ccc(Br)cc1 [Compound 4f] on UACC-257, measured activity at 10 µM was 118

Tested on UACC-257, the item Cc1nc(SCC(=O)N2CCN(c3cc4c(cc3F)c(=O)c(C(=O)O)cn4C3CC3)CC2)sc1C(=O)/C=C/c1cccc(Cl)c1 [Compound 4b] showed activity at 10 µM equal to 77.9

// compound Cc1nc(SCC(=O)N2CCN(c3cc4c(cc3F)c(=O)c(C(=O)O)cn4C3CC3)CC2)sc1C(=O)/C=C/c1ccc(F)cc1 [Compound 4e] , assay UACC-257, activity at 10 µM value: 106

Lab entry: UACC-257 assay, compound CC(=O)c1sc(SCC(=O)N2CCN(c3cc4c(cc3F)c(=O)c(C(=O)O)cn4C3CC3)CC2)nc1C [Compound 4a] , activity at 10 µM = 102

activity at 10 µM on UACC-257 for Cc1nc(SCC(=O)N2CCN(c3cc4c(cc3F)c(=O)c(C(=O)O)cn4C3CC3)CC2)sc1C(=O)/C=C/c1ccc(N(C)C)cc1 [Compound 4i] is 108

Bench note, UACC-257: entry Cc1nc(SCC(=O)N2CCN(c3cc4c(cc3F)c(=O)c(C(=O)O)cn4C3CC3)CC2)sc1C(=O)/C=C/c1ccc(Cl)cc1 [Compound 4c] , its activity at 10 µM = 117

So the reported activity at 10 µM for COc1cccc(/C=C/C(=O)c2sc(SCC(=O)N3CCN(c4cc5c(cc4F)c(=O)c(C(=O)O)cn5C4CC4)CC3)nc2C)c1OC [Compound 4k] , on UACC-257, turned out to be 102

Summary line: Cc1nc(SCC(=O)N2CCN(c3cc4c(cc3F)c(=O)c(C(=O)O)cn4C3CC3)CC2)sc1C(=O)/C=C/c1ccc([N+](=O)[O-])cc1 [Compound 4h] , UACC-257, reported activity at 10 µM = 82.6

Given the compound Cc1nc(SCC(=O)N2CCN(c3cc4c(cc3F)c(=O)c(C(=O)O)cn4C3CC3)CC2)sc1C(=O)/C=C/c1cccc(F)c1 [Compound 4d] and test system UACC-257, the measured activity at 10 µM is 53.9

Bench note, UACC-257: entry COc1ccc(/C=C/C(=O)c2sc(SCC(=O)N3CCN(c4cc5c(cc4F)c(=O)c(C(=O)O)cn5C4CC4)CC3)nc2C)cc1 [Compound 4j] , its activity at 10 µM = 114

Test item Cc1nc(SCC(=O)N2CCN(c3cc4c(cc3F)c(=O)c(C(=O)O)cn4C3CC3)CC2)sc1C(=O)/C=C/c1cccc([N+](=O)[O-])c1 [Compound 4g] ; UACC-257; reported activity at 10 µM was 99.8
